Here the recorded α4β7 cell (Hu) IC50 is given for each entry.
- Assay system: α4β7 integrin on human cells (human, UniProt P13612 34-1032; P26010 20-798)
- Protocol text: cell-based or functional assay
Bridge positions count the residues as written; N and C are the ends. Square brackets hold non-standard residues; d marks the D form. Primed or numbered codes have the meaning given here. Ends that are not written are not given here. PEG13′ = Bifunctional PEG linker with 13 polyethylene glycol units; Phe(4-COOH) = N[C@@H](Cc1ccc(C(=O)O)cc1)C(=O)O; Phe(4-tBu) = CC(C)(C)c1ccc(C[C@H](N)C(=O)O)cc1; 1Nal = N[C@@H](Cc1cccc2ccccc12)C(=O)O; 2Nal = N[C@@H](Cc1ccc2ccccc2c1)C(=O)O; d2Nal = N[C@H](Cc1ccc2ccccc2c1)C(=O)O; NMeR = CN[C@@H](CCCNC(=N)N)C(=O)O; β3hE = N[C@@H](CCC(=O)O)CC(=O)O; Pen = CC(C)(S)[C@H](N)C(=O)O; dNMeK = CN[C@H](CCCCN)C(=O)O

Binder	α4β7 cell (Hu) IC50
Ac-[Pen][NMeR]SDTL[Pen][2Nal][dL][dK]-NH2 (disulfide 1-7 (inferred); also: homodimer via DIG) [SEQ ID NO 119]	> 500 nM
Ac-[Pen][NMeR]SDTL[Pen][1Nal]E[dNMeK]-NH2 (disulfide 1-7 (inferred); also: homodimer via DIG linker) [SEQ ID NO 44]	≤ 10 nM
Ac-[Pen][NMeR]SDTL[Pen][1Nal][dL][dK]-NH2 (disulfide 1-7 (inferred); also: homodimer via DIG) [SEQ ID NO 113]	> 500 nM
[PEG13′]C[NMeR]SDTL[Pen]W-NH2 (disulfide 2-8 (inferred)) [SEQ ID NO 20]	> 50 nM
Ac-[Pen][NMeR]SDIL[Pen][2Nal][dE]-NH2 (disulfide 1-7 (inferred)) [SEQ ID NO 160]	> 1000 nM
Ac-[Pen][NMeR]SDTL[Pen]W[dE][dK]-NH2 (disulfide 1-7 (inferred); also: homodimer linked by IDA) [SEQ ID NO 70]	> 25 nM
Ac-[Pen][NMeR]SDTL[Pen]WP[dK]-NH2 (disulfide 1-7 (inferred); also: homodimer linked by DIG) [SEQ ID NO 94]	> 100 nM
Ac-[Pen][NMeR]SDDL[Pen][Phe(4-tBu)][β3hE][dK]-NH2 (disulfide 1-7 (inferred); also: homodimer via IDA, Alexa-647 label on IDA) [SEQ ID NO 193]	> 100000 nM
Ac-[Pen][NMeR]SDTL[Pen][Phe(4-tBu)][b‑H‑E][dK]-NH2 (disulfide 1-7 (inferred); also: homodimer via IDA) [SEQ ID NO 166]	≤ 10 nM
Ac-[Pen][NMeR]SDTY[Pen][2Nal][dE]-NH2 (disulfide 1-7 (inferred)) [SEQ ID NO 164]	> 1000 nM
Ac-[Pen][NMeR]SDTL[Pen][Phe(4-tBu)][b‑H‑E][dK] (disulfide 1-7 (inferred); not fully specified (residue 10); also: 4,4,4-trifluorobutyric acid attached after k) [SEQ ID NO 169]	> 10 nM
Ac-[Pen][NMeR]SDTL[Pen]W[Phe(4-COOH)][dK]-NH2 (disulfide 1-7 (inferred); also: dimer via DIG) [SEQ ID NO 105]	> 50 nM
Ac-[Pen][NMeR]SDTL[Pen]Y[dE][dK]-NH2 (disulfide 1-7 (inferred); also: homodimer via DIG) [SEQ ID NO 123]	> 50 nM
Ac-[Pen][NMeR]SDTL[Pen]WPK-NH2 (disulfide 1-7 (inferred); also: homodimer linked by DIG) [SEQ ID NO 95]	> 100 nM
Ac-[Pen][NMeR]SDTL[Pen][2Nal][b‑H‑E]-NH2 (disulfide 1-7 (inferred)) [SEQ ID NO 155]	> 25 nM
Ac-[Pen][NMeR]SDTL[Pen][d2Nal]E[dK]-NH2 (disulfide 1-7 (inferred); also: homodimer via DIG linker) [SEQ ID NO 35]	> 100 nM
Ac-[Pen][NMeR]SDTL[Pen]W[dH][dK]-NH2 (disulfide 1-7 (inferred); also: dimer via DIG) [SEQ ID NO 104]	> 100 nM
Ac-[Pen][NMeR]SDTL[Pen][Phe(4-tBu)][b‑H‑E]-NH2 (disulfide 1-7 (inferred)) [SEQ ID NO 165]	> 10 nM
